Numbers sourced from patent US11524966B1.

assayedSystem: USP28 (His-tagged USP28-FL-mammalian) (Homo sapiens, UniProt Q96RU2)
Construct: Expression of USP28 (1-1077)-TEV-6*His (pTT5 vector); made in house; host or cells: Expi293f cells (pTT5 vector)
Sequence (Q96RU2 whole entry): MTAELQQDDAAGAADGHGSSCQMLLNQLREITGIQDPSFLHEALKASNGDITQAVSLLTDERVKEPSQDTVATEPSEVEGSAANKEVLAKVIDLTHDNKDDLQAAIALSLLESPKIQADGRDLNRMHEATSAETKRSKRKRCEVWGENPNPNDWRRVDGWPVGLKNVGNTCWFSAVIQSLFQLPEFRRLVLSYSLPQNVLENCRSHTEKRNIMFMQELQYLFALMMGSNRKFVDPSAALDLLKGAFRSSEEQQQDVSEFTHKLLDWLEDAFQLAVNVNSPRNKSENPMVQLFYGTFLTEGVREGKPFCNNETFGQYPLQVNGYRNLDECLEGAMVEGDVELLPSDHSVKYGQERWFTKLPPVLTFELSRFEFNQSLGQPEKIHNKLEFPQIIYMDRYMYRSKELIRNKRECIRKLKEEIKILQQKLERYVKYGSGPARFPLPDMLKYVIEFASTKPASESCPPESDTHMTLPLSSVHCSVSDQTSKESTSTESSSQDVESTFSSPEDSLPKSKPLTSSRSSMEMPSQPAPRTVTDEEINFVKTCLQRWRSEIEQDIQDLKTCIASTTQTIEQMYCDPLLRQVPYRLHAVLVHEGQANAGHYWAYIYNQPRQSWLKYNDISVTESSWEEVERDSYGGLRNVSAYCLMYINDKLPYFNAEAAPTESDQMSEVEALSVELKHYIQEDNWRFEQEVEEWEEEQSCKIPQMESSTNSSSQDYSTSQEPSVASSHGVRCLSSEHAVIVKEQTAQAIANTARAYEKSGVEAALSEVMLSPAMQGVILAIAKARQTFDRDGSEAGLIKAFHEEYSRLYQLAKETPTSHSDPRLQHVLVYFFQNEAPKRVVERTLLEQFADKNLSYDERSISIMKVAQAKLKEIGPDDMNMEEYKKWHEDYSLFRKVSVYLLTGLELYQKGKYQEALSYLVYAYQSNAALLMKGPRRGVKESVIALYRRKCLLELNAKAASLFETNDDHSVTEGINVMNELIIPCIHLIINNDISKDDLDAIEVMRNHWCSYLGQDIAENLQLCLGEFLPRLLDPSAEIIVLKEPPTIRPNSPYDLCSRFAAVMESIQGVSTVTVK
assayProtocol: Ubiquitin-Rhodamine 110 Assay for USP28 Activity, Example A-1(a)
Assay type: biochemical
testSettings: Ubiquitin-Rhodamine 110 assay, Example A-1(a); read-out: USP28 A-1(a) IC50 range
pIC50: −log10 of the molar value.
observable: pIC50

Requested field: pIC50. Item: CCn1ccc2cc(C(=O)N[C@H]3CCc4nc(N5C[C@H](C(F)F)[C@@H](N)C5)ccc4C3)cnc21 [Example 370]
5.70 to 6.70

Similarly, Cc1ccc2c(N)c(C(=O)N[C@H]3COc4cc(N5C[C@@H](N)[C@@]6(CCO6)C5)ccc4C3)sc2n1 [Example 339] ?
7.30 to 9.00

Similarly, O=C(N[C@H]1COc2cc(N3CCNCC3)ccc2C1)c1cnc2c(c1)CC[C@H]2O [Example 57] ?
< 5.70

Similarly, N#Cc1c(N2CC3CCC(C2)N3)cc(F)c2c1OC[C@H](NC(=O)c1cnc3c(c1)[C@H]1C[C@H]1CN3)C2 [Example 229] ?
5.70 to 6.70

Similarly, Cc1ccc2c(N)c(C(=O)N[C@H]3CCc4nc(N5C[C@@H](N)[C@H](C(F)F)C5)ccc4C3)sc2n1 [Example 25] ?
6.70 to 7.30

Similarly, O=C(N[C@H]1COc2cc(N3CCNCC3)ccc2C1)c1cnn2ccccc12 [Example 460] ?
< 5.70

Similarly, CO[C@H]1CN(c2cc3c(cc2C#N)C[C@@H](NC(=O)c2sc4nc(C)cnc4c2N)CO3)C[C@@H]1N [Example 176] ?
7.30 to 9.00

Similarly, Cc1ccc2c(N)c(C(=O)N[C@H]3COc4cc(N5C[C@H](OC6CCC6)[C@@H](N)C5)ccc4C3)sc2n1 [Example 141] ?
7.30 to 9.00

Similarly, Cc1ccc2c(N)c(C(=O)N[C@H]3CCc4nc(N5CC[C@@H]6CNC[C@@H]65)ccc4C3)sc2n1 [Example 217] ?
7.30 to 9.00

Similarly, COCC1(N)CN(c2ccc3c(c2)OC[C@H](NC(=O)c2sc4nc(C)ccc4c2N)C3)C1 [Example 373] ?
7.30 to 9.00

Similarly, Cc1ccc2c(N)c(C(=O)N[C@H]3COc4cc([C@H]5C[C@@H](N)C5)ccc4C3)sc2n1 [Example 123] ?
7.30 to 9.00

Similarly, Cc1cnc2c(N)c(C(=O)N[C@@H]3CCc4cc(N5CCNC[C@H](O)C5)ccc4C3)sc2n1 (single isomer, unassigned) [Example 7-7] ?
5.70 to 6.70

Similarly, COC[C@H]1CN(c2ccc3c(c2)OC[C@H](NC(=O)c2sc4nc(C)cc(C)c4c2N)C3)C[C@H]1N [Example 276] ?
7.30 to 9.00

Similarly, CCn1cc(Cl)c2cc(C(=O)N[C@H]3COc4c(C#N)c(N5CC6CCC(C5)N6)cc(F)c4C3)nnc21 [Example 356] ?
5.70 to 6.70

Similarly, Cc1ccc2c(N)c(C(=O)N[C@H]3COc4c(F)c(N5C[C@H]6C[C@@H]5CN6)cc(F)c4C3)sc2n1 [Example 111] ?
7.30 to 9.00
